Study target: angiotensin II receptor (Oryctolagus cuniculus, UniProt P34976)
Construct: Rabbit aorta thoracic is isolated; from tissue; host or cells: isolated rabbit thoracic aorta
Sequence (P34976 whole entry): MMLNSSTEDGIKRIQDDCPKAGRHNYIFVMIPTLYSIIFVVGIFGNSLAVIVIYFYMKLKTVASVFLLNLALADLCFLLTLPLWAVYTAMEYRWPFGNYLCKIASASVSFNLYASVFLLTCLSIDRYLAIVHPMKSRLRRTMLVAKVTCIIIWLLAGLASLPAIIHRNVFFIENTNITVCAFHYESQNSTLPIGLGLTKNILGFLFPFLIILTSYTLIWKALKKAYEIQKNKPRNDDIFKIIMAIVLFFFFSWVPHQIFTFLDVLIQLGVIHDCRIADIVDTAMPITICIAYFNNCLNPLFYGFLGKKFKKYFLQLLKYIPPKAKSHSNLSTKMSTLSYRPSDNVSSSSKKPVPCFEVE
Experimental protocol: Angiotensin II receptor antagonistic activity: inhibition of angiotensin II-induced contraction of isolated rabbit thoracic aorta
Assay type: cell-based
Test context: isolated rabbit thoracic aorta contracted by angiotensin II; from dose-response curve (Schild); read-out: pA2 (converted)
Property measured: Kb (pM)

[a] CCCCc1nc2c(n1Cc1ccc(-c3ccccc3-c3nn[nH]n3)cc1)C(=O)CCCC2 [Compound 18]
[b] CCCc1nc2c(n1Cc1ccc(-c3ccccc3-c3nnn[nH]3)cc1)C(=O)CCCC2
[c] CCCCc1nc2c(n1Cc1ccc(-c3ccccc3-c3nn[nH]n3)cc1)CCCCC2
[d] CCc1nc2c(n1Cc1ccc(-c3ccccc3-c3nn[nH]n3)cc1)C(=O)CCCC2
Exam item: Descending by Kb please, for everything listed above. Lab note: record answer as labels in requested order.
Marked response: c, d, a, b
(c: 20000 pM, d: 1000 pM, a: 501 pM, b: 126 pM)

* * *

Study target: angiotensin II receptor (Oryctolagus cuniculus, UniProt P34976)
Construct: Rabbit aorta thoracic is isolated; from tissue; host or cells: isolated rabbit thoracic aorta
Experimental protocol: Angiotensin II receptor antagonistic activity: inhibition of angiotensin II-induced contraction of isolated rabbit thoracic aorta
Type: cell-based
Test context: isolated rabbit thoracic aorta contracted by angiotensin II; from dose-response curve (Schild); read-out: pA2 (converted)
Structures can show the parent of a compound that is named as a salt.
Property measured: Kb (nM)

Consider the reported Kb for these compounds:
In [3]: df
Out[3]:
                                   compound  readout_number
0  CCCCc1nc2c(n1Cc1ccc(-c3ccccc3-c3nn[nH]n3)cc1)C(O)CCCC2 (centres unmarked)            9.77
1  CC(C)Cc1nc2c(n1Cc1ccc(-c3ccccc3-c3nn[nH]n3)cc1)C(=O)CCCC2           0.851

[a] CCCCc1nc2c(n1Cc1ccc(-c3ccccc3-c3nn[nH]n3)cc1)C(=O)CCCC2 [18 - K salt]
[b] CCCCc1nc2c(n1Cc1ccc(-c3ccccc3-c3nn[nH]n3)cc1)CCCCC2=O
Exam item: Quick check, higher Kb between a and b ? // respond with label for picked entry
Marked response: b

[1] CCCCCc1nc2c(n1Cc1ccc(-c3ccccc3-c3nn[nH]n3)cc1)C(=O)CCCC2
[2] CC(C)c1nc2ccccc(=O)c2n1Cc1ccc(-c2ccccc2-c2nn[nH]n2)cc1
[3] CCc1nc2ccccc(=O)c2n1Cc1ccc(-c2ccccc2-c2nn[nH]n2)cc1
Exam item: Sort these compounds on Kb so the largest reading comes first. Returns: the labels arranged in the requested order.
Marked response: 2, 3, 1

* * *

Study target: angiotensin II receptor (Oryctolagus cuniculus)
Construct: Rabbit aorta thoracic is isolated; from tissue; host or cells: isolated rabbit thoracic aorta
Experimental protocol: Angiotensin II receptor antagonistic activity: inhibition of angiotensin II-induced contraction of isolated rabbit thoracic aorta
Assay type: cell-based
Test context: isolated rabbit thoracic aorta contracted by angiotensin II; from dose-response curve (Schild); read-out: pA2 (converted)
Description: Angiotensin II receptor antagonistic activity experiments are carded out according to P. C. Wong et al. (Hypertension. 15, 823 (1990)). Rabbit aorta thoracic is isolated, contracted by angiotensin II. The inhibition of contraction by the compound (1) is expressed as pA2 from dose-response curve (Schild, Brit. J. Pharmacol. 14, 48 (1959)).
Property measured: Kb (nM)

In [3]: df
Out[3]:
                                   compound                              study_target  property_measured  readout_number
0  Cc1nc2c(n1Cc1ccc(-c3ccccc3-c3nn[nH]n3)cc1)C(=O)CCCC2 [Compound 15]  angiotensin II receptor (Oryctolagus cuniculus)                 Kb            5.01
1  CCCc1nc2ccccc(=O)c2n1Cc1ccc(-c2ccccc2-c2nn[nH]n2)cc1 [Compound 3]  angiotensin II receptor (Oryctolagus cuniculus)                 Kb           0.331

[P] CC(C)c1nc2c(n1Cc1ccc(-c3ccccc3-c3nn[nH]n3)cc1)C(=O)CCCC2 [Compound 24]
[Q] CCCCc1nc2c(n1Cc1ccc(-c3ccccc3-c3nn[nH]n3)cc1)CCCCC2O (stereo not shown) [Compound 27]
Exam item: Smaller Kb value, P vs Q ? Please respond with the label that marks your chosen entry.
Marked response: P
(P: 1.78 nM, Q: 63.1 nM)
